FYI, the data here is from patent US11530244B2.

- assay.target: human PCSK9 / human LDLR EGFa domain interaction (Homo sapiens (Human), UniProt Q8NBP7)
- Sequence (Q8NBP7 153-692): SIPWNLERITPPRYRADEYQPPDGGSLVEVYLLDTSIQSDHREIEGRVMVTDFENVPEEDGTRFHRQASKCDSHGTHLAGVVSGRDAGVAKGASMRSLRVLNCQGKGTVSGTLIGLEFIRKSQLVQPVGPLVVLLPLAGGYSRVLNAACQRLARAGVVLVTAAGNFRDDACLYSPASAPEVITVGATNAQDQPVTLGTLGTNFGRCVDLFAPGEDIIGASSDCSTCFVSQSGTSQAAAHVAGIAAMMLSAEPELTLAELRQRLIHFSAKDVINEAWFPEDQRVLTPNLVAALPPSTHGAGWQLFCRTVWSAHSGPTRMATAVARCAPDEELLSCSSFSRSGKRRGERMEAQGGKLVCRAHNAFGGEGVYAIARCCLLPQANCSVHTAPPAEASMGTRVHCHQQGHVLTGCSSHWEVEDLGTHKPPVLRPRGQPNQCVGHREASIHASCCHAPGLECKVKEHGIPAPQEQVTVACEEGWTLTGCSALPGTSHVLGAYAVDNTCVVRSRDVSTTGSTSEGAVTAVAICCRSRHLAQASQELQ
- Sequence (Q8NBP7 31-152 partner): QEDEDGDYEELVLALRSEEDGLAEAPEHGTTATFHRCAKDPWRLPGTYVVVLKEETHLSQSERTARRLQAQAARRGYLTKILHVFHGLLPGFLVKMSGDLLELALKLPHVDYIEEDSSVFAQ
- assay.text: TR-FRET assay of inhibition of the PCSK9-LDLR protein-protein interaction
- Type: binding
- condition.parameters: TR-FRET, 20 nM human PCSK9, 20 nM human LDLR EGFa domain, 2 hours room temperature; read-out: IC50
pIC50: −log10 of the molar value. Starred links: 1 amine or outer side, 2 acyl side, 3 side chain; linkers in the order of their positions; H or OH if unused. Positions of bridges follow the written chain, without caps; N, C: chain ends. Non-standard residues stand in square brackets, D forms with d. Residues, ends and D or L forms follow the SMILES beside them. Pro(4R-Bn) = O=C(O)[C@@H]1C[C@@H](Cc2ccccc2)CN1; Phe(4-COOH) = N[C@@H](Cc1ccc(C(=O)O)cc1)C(=O)O; Trp(5-F) = N[C@@H](Cc1c[nH]c2ccc(F)cc12)C(=O)O; mXylylene(5-F) = Fc1cc(C[*:1])cc(C[*:2])c1; mXylylene = c1cc(C[*:1])cc(C[*:2])c1; X21 = O=C(Cc1cccc(CN[*:2])c1)[*:1]; X7 = O=C(Cc1ccc(CN[*:1])cc1)[*:2]; αMeP = C[C@@]1(C(=O)O)CCCN1; Mpa = O=C(O)CCS
Examples of molecules with documented pIC50 follow.
measured.metric: pIC50

[[record]]
molecule = "NCCCC[C@@H]1NC(=O)CCSCc2cccc(c2)CSC[C@@H](C(N)=O)NC(=O)[C@@H]2C[C@@H](Cc3ccccc3)CN2C(=O)[C@H](Cc2ccc(O)cc2)NC(=O)[C@H](Cc2c[nH]cn2)NC(=O)[C@H](CC(=O)O)NC(=O)[C@H](Cc2c[nH]c3ccc(F)cc23)NC(=O)[C@H](Cc2c[nH]c3ccc(F)cc23)NC(=O)CNC1=O [Compound 294] ([Mpa]KG[Trp(5-F)][Trp(5-F)]DHY[Pro(4R-Bn)]C-NH2; linker 1-10 via mXylylene)"
measured_metric = "pIC50"
result_value = "6.00 to 7.00"

[[record]]
molecule = "COc1ccc(C[C@@H]2NC(=O)[C@H](Cc3cnc[nH]3)NC(=O)[C@H](CC(=O)O)NC(=O)[C@H](Cc3c[nH]c4ccc(F)cc34)NC(=O)[C@H](Cc3c[nH]c4ccc(F)cc34)NC(=O)[C@@H](C)NC(=O)[C@H](NC(C)=O)CCCCNC(=O)Cc3cccc(c3)CNC(=O)C[C@@H](C(N)=O)NC(=O)[C@]3(C)CCCN3C2=O)cc1 [Compound 394] (Ac-[dK][dA][Trp(5-F)][Trp(5-F)]DHY(Me)[αMeP]D-NH2; linker 1-9 via X21)"
measured_metric = "pIC50"
result_value = "6.00 to 7.00"

[[record]]
molecule = "C[C@H]1NC(=O)[C@H](CCCCN)NC(=O)CCSCc2cc(F)cc(c2)CSC[C@@H](C(N)=O)NC(=O)[C@]2(C)CCCN2C(=O)[C@H](Cc2ccc(O)cc2)NC(=O)[C@H]([C@@H](C)O)NC(=O)[C@@H]2CCCN2C(=O)[C@H](Cc2c[nH]c3ccc(F)cc23)NC(=O)[C@H](Cc2c[nH]c3ccc(F)cc23)NC1=O [Compound 042] ([Mpa]K[dA][Trp(5-F)][Trp(5-F)]PTY[αMeP]C-NH2; linker 1-10 via mXylylene(5-F))"
measured_metric = "pIC50"
result_value = "4.30 to 4.68"

[[record]]
molecule = "COc1ccc(C[C@@H]2NC(=O)[C@H](Cc3cnc[nH]3)NC(=O)[C@H](CC(=O)O)NC(=O)[C@H](Cc3c[nH]c4ccc(F)cc34)NC(=O)[C@H](Cc3c[nH]c4ccc(F)cc34)NC(=O)[C@@H](C)NC(=O)Cc3ccc(cc3)CNC(=O)c3ccc(cc3)C[C@@H](C(N)=O)NC(=O)[C@]3(C)CCCN3C2=O)cc1 [Compound 391] ([X7][dA][Trp(5-F)][Trp(5-F)]DHY(Me)[αMeP][Phe(4-COOH)]-NH2; lactam N-9)"
measured_metric = "pIC50"
result_value = "7.00 to 10.00"

